The following substances are listed with their measured % INHIB. values.
Target: IL-8 receptors on human neutrophils (human)
Assay: inhibition of 125I-IL-8 (10^-12 M) binding to human neutrophils, peptide 100 µM
Numbers only; they are read as %.

[[record]]
substance = "RRWWCF (peptide)"
measurement_unit = "%"
measured = 80.2

[[record]]
substance = "RRWWCS (peptide)"
measurement_unit = "%"
measured = 79.3

[[record]]
substance = "RRWWCG (peptide)"
measurement_unit = "%"
measured = 86.8

[[record]]
substance = "RRWWCQ (peptide)"
measurement_unit = "%"
measured = 19.2

[[record]]
substance = "RRWWCV (peptide)"
measurement_unit = "%"
measured = 81.1


Now look at this entry.
Prompt: Recorded % INHIB. for RRWWCK (peptide) with IL-8 receptors on human neutrophils (human), please?
Completion: 110
